tested on: CD2F1 mice, L1210 leukemia ip, survival T/C; assay: NCI In Vivo Anticancer Drug Screen. Data for tumor model L1210 Leukemia (intraperitoneal) in CD2F1 (CDF1) mice; conditions: endpoint: mean survival time; dose: 200.0 mg/kg/injection; schedule: Q04DX003 (ip); vehicle: saline with Tween-80; higher = longer survival
Inconclusive results and toxic doses are left out.
observed.property: T/C

>>> recorded_measurement("Cc1ccc(C(=O)O)cc1")
"93 % of control"
>>> recorded_measurement("O=C(O)C(O)C(O)C(O)C(O)CO.[Mn] (stereo unspecified)")
"104 % of control"
>>> recorded_measurement("CC(=O)C1CCC2C3CC=C4CC(OC(=O)CCC(C)C)CCC4(C)C3CCC12C (stereo unspecified)")
"95 % of control"
>>> recorded_measurement("Cc1c2c(cc3c1CCC1(C)C(C(C)CCC(C)C(C)C)CC(O)C31O)CCCC2 (stereo unspecified)")
"98 % of control"
>>> recorded_measurement("O=S(=O)(O)SCCN1CCOCC1")
"101 % of control"
>>> recorded_measurement("COc1cc2c3c(c1OC)C1(C=CC(=O)C=C1)CC3N(C(C)=O)CC2 (stereo unspecified)")
"95 % of control"

* * *

Let's look at some compounds and their measured T/C.
tested on: CD2F1 mice, L1210 leukemia ip, survival T/C; assay: NCI In Vivo Anticancer Drug Screen. Data for tumor model L1210 Leukemia (intraperitoneal) in CD2F1 (CDF1) mice; settings: endpoint: mean survival time; dose: 100.0 mg/kg/injection; schedule: Q04DX003 (ip); vehicle: saline with Tween-80; higher = longer survival
Inconclusive results and toxic doses are left out.
observed.property: T/C

>>> recorded_measurement("CC(C)(C)c1ccc(C(=O)C2CC2)cc1")
"98 % of control"
>>> recorded_measurement("O=C(OCC(OC(=O)c1ccccc1)C1OC(c2ccccc2)OC1C(COC(=O)c1ccccc1)OC(=O)c1ccccc1)c1ccccc1 (stereo not drawn)")
"97 % of control"
>>> recorded_measurement("c1ccc(-c2nc3ccccc3s2)nc1")
"96 % of control"
>>> recorded_measurement("c1ccc(Sc2ccc3ccccc3c2)cc1")
"98 % of control"
>>> recorded_measurement("CC(C)c1ccc2cc(C(C)C)ccc2c1")
"86 % of control"
>>> recorded_measurement("O=C(O)C(O)(Cl)c1cccs1 (stereo not drawn)")
"98 % of control"
>>> recorded_measurement("O=S(=O)(Cl)C(Cl)(Cl)Cl")
"94 % of control"
>>> recorded_measurement("O=C(Nc1ccc2ccccc2c1)c1ccc(Cl)cc1Cl")
"96 % of control"
>>> recorded_measurement("O=S=NNc1ccccc1")
"95 % of control"
>>> recorded_measurement("NC(CCSCc1ccccc1)C(=O)O (stereo not drawn)")
"98 % of control"
>>> recorded_measurement("COc1cc(OC)c2c(c1Cl)OC(C(C)=O)C2=O (stereo not drawn)")
"93 % of control"
>>> recorded_measurement("CS(=O)(=O)OCCN(CCOS(C)(=O)=O)c1ccc(N=O)c(Cl)c1")
"124 % of control"
>>> recorded_measurement("O=C(O)Cc1ccncc1")
"97 % of control"
>>> recorded_measurement("COC(=O)C(Br)C1CCCCC1 (stereo not drawn)")
"100 % of control"
>>> recorded_measurement("COc1ccc(NC(=O)CC(C)C(=O)O)cc1 (stereo not drawn)")
"101 % of control"
>>> recorded_measurement("CCCCN(CCCC)CC(O)c1cc(-c2ccc(Cl)cc2)nc2c(OC)ccc(OC)c12 (stereo not drawn)")
"98 % of control"
>>> recorded_measurement("O=[N+]([O-])c1cc2nsnc2cc1[N+](=O)[O-]")
"101 % of control"
>>> recorded_measurement("COc1ccc(C(C)=O)cc1C=O")
"97 % of control"
>>> recorded_measurement("NC(=S)N1N=C(c2cccc([N+](=O)[O-])c2)CCC1=O")
"111 % of control"
>>> recorded_measurement("COc1cc(C)c(Br)c(OC)c1")
"92 % of control"
>>> recorded_measurement("CSc1ccc(OC(=O)Nc2ccc(C)c([N+](=O)[O-])c2)cc1C")
"92 % of control"
>>> recorded_measurement("COC(=O)C(C)(C)Br")
"97 % of control"
>>> recorded_measurement("O=C(O)c1c(F)c(F)c(F)c(C(=O)O)c1F")
"93 % of control"
>>> recorded_measurement("O=C(O)COC(C[N+](=O)[O-])C(Cl)(Cl)Cl (stereo not drawn)")
"93 % of control"
>>> recorded_measurement("OC1CCCCCCCCC1Cl (stereo not drawn)")
"94 % of control"
>>> recorded_measurement("Cc1cccc(NC(=O)C2CCC(C)(C(=O)O)C2(C)C)c1 (stereo not drawn)")
"94 % of control"
>>> recorded_measurement("CCCOc1ccc(/C=N\\N=C\\c2ccc(OCCC)cc2)cc1")
"89 % of control"
>>> recorded_measurement("CON(C)C(=O)N1c2ccccc2Sc2ccccc21")
"87 % of control"

* * *

Test system: CD2F1 mice, L1210 leukemia ip, survival T/C
Assay: NCI In Vivo Anticancer Drug Screen. Data for tumor model L1210 Leukemia (intraperitoneal) in CD2F1 (CDF1) mice
Settings: endpoint: mean survival time; dose: 50.0 mg/kg/injection; schedule: Q01DX009 (ip); vehicle: water; higher = longer survival
Method: The antitumor activity of compounds was measured in mice bearing transplantable tumors. Survival or tumor size were measured and the results are expressed as the measurement made in the treated group (T) divided by the measurement made in the vehicle treated control group (C). The tumor model used in this assay is L1210 Leukemia (intraperitoneal) in CD2F1 (CDF1) mice
Toxic doses and inconclusive results are not listed.
Let's look at some molecules and their measured T/C.
observed.property: T/C

>>> recorded_measurement("O=c1cc(O)c(Cl)nn1C1OC(CO)C(O)C1O (centres undefined)")
"100 % of control"
>>> recorded_measurement("COc1ccc(C(=O)c2ncccc2C)cc1OC")
"94 % of control"
>>> recorded_measurement("CC(=O)OCC1CCN2CCCC12 (centres undefined)")
"98 % of control"
>>> recorded_measurement("CN(C)Cc1ccc(C(C)(C)C)cc1Br")
"98 % of control"

* * *

system: CD2F1 mice, L1210 leukemia ip, survival T/C; experiment: NCI In Vivo Anticancer Drug Screen. Data for tumor model L1210 Leukemia (intraperitoneal) in CD2F1 (CDF1) mice; conditions: endpoint: mean survival time; dose: 200.0 mg/kg/injection; schedule: Q04DX003 (ip); vehicle: saline with Tween-80; higher = longer survival
Inconclusive results and toxic doses are left out.
observed.property: T/C

>>> recorded_measurement("c1ccc(-c2nc3ccccc3s2)nc1")
"103 % of control"
>>> recorded_measurement("CC(C)C1(NC(=O)C2C=C3c4cccc5[nH]cc(c45)CC3N(C)C2)OC2(O)C3CCCN3C(=O)C(Cc3ccccc3)N2C1=O (configuration not stated)")
"100 % of control"
>>> recorded_measurement("OC1=C2CCCCCC2=[N+]2CCCCC2C1 (configuration not stated)")
"95 % of control"
>>> recorded_measurement("CCCc1nc(N)[nH]c(=O)c1CCCCc1ccccc1")
"94 % of control"
>>> recorded_measurement("C(C#CCN1CCOCC1)#CCN1CCOCC1")
"96 % of control"
>>> recorded_measurement("C1CC2OC2CCC2OC12 (configuration not stated)")
"97 % of control"
>>> recorded_measurement("NC(=O)NC(=S)NC(=O)c1ccccc1")
"98 % of control"
>>> recorded_measurement("CCOc1ccc2c(O)csc2c1")
"91 % of control"
>>> recorded_measurement("COc1ccc(NC(=O)Nc2c(Oc3ccc(Cl)cc3)ccc(Cl)c2S(=O)(=O)O)cc1Cl")
"91 % of control"
>>> recorded_measurement("COc1cc2c(cc1OC)C(=O)C(C)(c1ccccc1)NC2 (configuration not stated)")
"96 % of control"
>>> recorded_measurement("COc1ccc(/C=C(/C#N)c2ccccc2)cc1")
"93 % of control"
>>> recorded_measurement("CSc1ncc(Br)c(C(=O)O)n1")
"96 % of control"

* * *

Let's look at some molecules and their measured T/C.
tested on: CD2F1 mice, L1210 leukemia ip, survival T/C; experiment: NCI In Vivo Anticancer Drug Screen. Data for tumor model L1210 Leukemia (intraperitoneal) in CD2F1 (CDF1) mice; conditions: endpoint: mean survival time; dose: 200.0 mg/kg/injection; schedule: Q04DX003 (ip); vehicle: saline with Tween-80; higher = longer survival
Inconclusive results and toxic doses are left out.
observed.property: T/C

>>> recorded_measurement("NC(=S)c1ccc(C(N)=S)cc1")
"97 % of control"
>>> recorded_measurement("Cc1nc2c(NC(=O)CCl)nn(C)c2nc1C")
"95 % of control"
>>> recorded_measurement("O=C(CC(NC(=O)OCc1ccccc1)C(=O)OCc1ccccc1)OCc1ccccc1 (stereo not drawn)")
"91 % of control"
>>> recorded_measurement("CCOC(=O)C1CC1C#N (stereo not drawn)")
"98 % of control"
>>> recorded_measurement("Cc1c2c(cc3c1CCC1(C)C3CCC1C(C)CCC(C)C(C)C)CCCC2 (stereo not drawn)")
"94 % of control"
>>> recorded_measurement("O=C(C/C(=N\\N(C(=O)c1ccccc1)c1ccccc1)c1ccccc1)c1ccccc1")
"97 % of control"
>>> recorded_measurement("CSc1ccc(OC(=O)Nc2ccc(C)c([N+](=O)[O-])c2)cc1C")
"92 % of control"
>>> recorded_measurement("NC(=S)N1N=C(c2cccc([N+](=O)[O-])c2)CCC1=O")
"111 % of control"
>>> recorded_measurement("NC(=Nc1ccccc1)SCCS(=O)(=O)O")
"100 % of control"
>>> recorded_measurement("C=CC(=O)Nc1ccccc1")
"96 % of control"
>>> recorded_measurement("C/C(=N/O)c1ccc(O)cc1")
"100 % of control"
>>> recorded_measurement("ClCc1ccc2ccccc2n1")
"104 % of control"
>>> recorded_measurement("CC(=O)N1CCc2cc(N)ccc21")
"95 % of control"
